# Tested on: LOX IMVI
# protocol text: NCI tumour cell line growth inhibition, 48 h
Calls of active or inactive are those of the source. No stated cut-off is given here; in the data, active = GI50 up to about 1.1 µM and inactive = higher.
Labels: active, inactive

{"columns": ["molecule", "target or test system", "cat"],
 "data": [
  ["CCCCC1Cc2cc(O)ccc2-c2nc3cc(O)ccc3n21.CCCCC1Cc2cc(O)ccc2-c2nc3ccc(O)cc3n21 (stereo unspecified)", "LOX IMVI", "inactive"],
  ["O=C1CCC(=O)c2ccccc2N1", "LOX IMVI", "inactive"],
  ["C[N+]1([O-])CCC(O)(C2CC2)CC1 (stereo unspecified)", "LOX IMVI", "inactive"],
  ["Sc1nn2c(Cc3ccccc3)nnc2s1", "LOX IMVI", "inactive"],
  ["COc1ccc(C(c2cc(OC)c(OC)c(OC)c2)N2C(=O)CCC2C(=O)O)cc1 (stereo unspecified)", "LOX IMVI", "inactive"],
  ["CCOC(=O)c1c(O)cn2c1[nH]c1cccc3cccc2c31", "LOX IMVI", "inactive"],
  ["COC(=O)C1=C(C(=O)OC)C(Cc2ccccc2)(OO)OC1=O (stereo unspecified)", "LOX IMVI", "inactive"],
  ["CN(C)CCOc1ccc2[nH]c(C(=O)N3CC(CCl)c4c3cc(N)c3ccccc43)cc2c1 (stereo unspecified)", "LOX IMVI", "active"],
  ["C=CC(Br)(CBr)CCC(Cl)C(C)C (stereo unspecified)", "LOX IMVI", "inactive"],
  ["CC1(C)N=C(C2CCCN2C(=O)OCc2ccccc2)OC1=O (stereo unspecified)", "LOX IMVI", "inactive"],
  ["CCC/C(Cl)=N/OC(=O)Nc1cccc(F)c1", "LOX IMVI", "inactive"]
]}

Provenance of the data: ChEMBL document CHEMBL1201862
